target: native PcrV on live Pseudomonas aeruginosa (strains O6-57/66, O11-PA103, O1-52/66, O16-177/81) (Pseudomonas aeruginosa); experiment: cell-based or functional assay
measured_parameter: RBC lysis IC50, strain O6-57/66 (µg/mL)
Give the value, in units of µg/mL, as a plain number.

(Q) Could you tell me which RBC lysis IC50, strain O6-57/66 is on file for 8C1 (antibody, V domains shown, also called optimized anti-PcrV mAb clone 8C1) VH: EVQLLESGGGLVQPGGSLRLSCTASGFTFSDNHMSWVRQAPGKGLDWVSGISESGGSTNYADSVKGRFSTSRDNSKSTLYLDMNSLRAEDTAIYYCAKGRFSTNSAHFFRAVYGMDVWGQGTAVTVSS VL: DIQLTQSPSSLSASVGDRVTITCRASQGISSYLAWYQQKPGKAPKLLIYAASTLQSGVPSRFSGSGSGTDFTLTISSLQPEDFATYYCQQLSSYPLTFGGGTKVEIK ?
(A) 0.121

(Q) Value lookup for RBC lysis IC50, strain O6-57/66; key = 13-42 mAb (antibody, V domains shown) VH: EVQLLESGGGLVQPGGSLRLSCTASGFTFSDYPMSWVRQAPGKGLDWVSGISESGGSTNDADSVKGRFSTSRDNSKSTLYLDMNSLRAEDTAIYYCAKGRFCTNSSCFFRAVYGMDVWGQGTAVTVSS VL: DIQLTQSPSSLSASVGDRVTITCRASQGISSYLAWYQQKPGKAPKLLIYAASTLQSGVPSRFSGSGSGTDFTLTISSLQPEDFATYYCQQLSSYPLSFGGGTKVEIK
(A) 0.13

(Q) Value lookup for RBC lysis IC50, strain O6-57/66; key = 7B1 (antibody, V domains shown, also called 7B1-IgG1; 7B1 mAb) VH: EVQLLESGGGLVQPGGSLRLSCTASGFTFSDNYMSWVRQAPGKGLDWVSVISESGGSTNYADSVKGRFSTSRDNSKSTLYLDMNSLRAEDTAIYYCAKGRFSTLSSHFFRAVYGMDVWGQGTAVTVSS VL: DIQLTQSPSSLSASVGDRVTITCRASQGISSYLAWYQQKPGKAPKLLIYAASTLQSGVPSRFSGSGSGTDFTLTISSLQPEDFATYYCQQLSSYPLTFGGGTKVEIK
(A) 0.138

(Q) What measured RBC lysis IC50, strain O6-57/66 goes with 7C1 (antibody, V domains shown, also called optimized anti-PcrV mAb clone 7C1) VH: EVQLLESGGGLVQPGGSLRLSCTASGFTFSDNHMSWVRQAPGKGLDWVSGISESGGSTNYADSVKGRFSTSRDNSKSTLYLDMNSLRAEDTAIYYCAKGRFSTSSSHFYRAVYGMDVWGQGTAVTVSS VL: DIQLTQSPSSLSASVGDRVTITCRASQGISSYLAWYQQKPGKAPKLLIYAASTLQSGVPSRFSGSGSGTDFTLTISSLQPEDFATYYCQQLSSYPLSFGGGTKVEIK ?
(A) 0.0767

Source: patent US20220289830A1
